Assay: Amniotic fluid drug concentration in mouse pregnancy model (HPLC-MSMS)
Format: in vivo, C57BL/6J mice
Details: female, C57BL/6J, mouse, amniotic fluid, oral, pregnant mice; CAB 5 mg/kg (10×) oral gavage once daily GD11.5-GD15.5 with TDF 50 mg/kg + FTC 33.3 mg/kg; mean (SD), n=2
assay metric: concentration at 1 h (ng/mL)
# value in ng/mL; strip the unit string

Field request: concentration at 1 h | item: C[C@H]1CO[C@@H]2Cn3cc(C(=O)NCc4ccc(F)cc4F)c(=O)c(O)c3C(=O)N12 [CAB, cabotegravir] 112

----------
Experiment: Amniotic fluid drug concentration in mouse pregnancy model (HPLC-MSMS)
Format: in vivo, C57BL/6J mice
Details: female, C57BL/6J, mouse, amniotic fluid / maternal plasma, oral, pregnant mice; BIC 0.83 mg/kg (1×) oral gavage once daily GD11.5-GD15.5 with TDF 50 mg/kg + FTC 33.3 mg/kg; mean (SD), n=2; read-out: Amniotic: Maternal Plasma Ratio 1 h
Method: All animal experiments were approved by the University Health Network Animal Use Committee (protocol #2575) and performed according to the policies and guidelines of the Canadian Council on Animal Care. […] The equivalent mouse mg/kg dose was calculated based on the human dose divided by an assumed average human weight of 60 kg. […] Samples from 2 dams per arm were analyzed for drug levels. […]
assay metric: Kp at 1 h

Field request: Kp at 1 h | item: O=C(NCc1c(F)cc(F)cc1F)c1cn2c(c(O)c1=O)C(=O)N1[C@H]3CC[C@H](C3)O[C@@H]1C2 0.021
